The reader will find reported pIC50 values listed item by item below.
target_under_test: dipeptidyl peptidase IV (Homo sapiens, UniProt P27487)
Sequence (P27487 whole entry, species assumed): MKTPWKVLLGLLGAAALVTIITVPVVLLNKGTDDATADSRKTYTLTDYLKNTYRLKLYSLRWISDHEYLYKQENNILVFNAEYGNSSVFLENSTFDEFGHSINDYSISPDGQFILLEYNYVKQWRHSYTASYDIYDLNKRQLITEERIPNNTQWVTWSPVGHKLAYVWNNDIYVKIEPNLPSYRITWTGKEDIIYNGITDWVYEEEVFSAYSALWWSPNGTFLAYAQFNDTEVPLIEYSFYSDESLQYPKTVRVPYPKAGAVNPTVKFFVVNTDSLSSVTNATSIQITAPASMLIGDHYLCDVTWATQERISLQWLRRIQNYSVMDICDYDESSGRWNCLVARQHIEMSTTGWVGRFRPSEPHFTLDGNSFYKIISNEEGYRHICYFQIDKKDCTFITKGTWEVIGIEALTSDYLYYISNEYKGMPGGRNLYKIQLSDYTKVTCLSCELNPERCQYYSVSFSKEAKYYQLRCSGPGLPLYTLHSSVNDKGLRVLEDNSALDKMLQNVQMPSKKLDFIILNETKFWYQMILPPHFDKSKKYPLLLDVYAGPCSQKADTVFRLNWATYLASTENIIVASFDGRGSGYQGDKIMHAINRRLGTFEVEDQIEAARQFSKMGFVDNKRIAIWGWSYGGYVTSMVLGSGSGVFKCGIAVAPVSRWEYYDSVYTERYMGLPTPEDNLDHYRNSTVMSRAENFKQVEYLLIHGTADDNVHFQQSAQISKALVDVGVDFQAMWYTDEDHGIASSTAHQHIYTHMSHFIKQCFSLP
assay_remarks: biochemical
settings: values without "*" = IC-50; read-out: IC50DPIV
pIC50: −log10 of the molar value.
recorded_metric: pIC50

{"molecule": "COc1cc(C)ccc1N(CCCN1C(=O)c2cccc3cccc(c23)C1=O)C(=O)c1cc(C)cc(C)c1 [D3.073]", "recorded_metric": "pIC50", "measured_result": 4.26}
{"molecule": "CCOc1cc(/C=N/NC(=O)c2cc(C3CC3)[nH]n2)ccc1O [D10.039]", "recorded_metric": "pIC50", "measured_result": 4.68}
{"molecule": "O=C(N/N=C/c1ccc([N+](=O)[O-])o1)c1ccccc1I [D10.040]", "recorded_metric": "pIC50", "measured_result": 4.68}
{"molecule": "Cc1ccc(/C=N/NC(=O)c2ccc(NC(=O)c3cccc([N+](=O)[O-])c3)cc2)o1 [D10.045]", "recorded_metric": "pIC50", "measured_result": 4.54}
{"molecule": "CC1=C(C#N)C(=O)N(CCO)C(=O)/C1=C\\c1ccc(-c2cc(Cl)ccc2Cl)o1 [D6.071]", "recorded_metric": "pIC50", "measured_result": 4.29}
{"molecule": "COc1ccc(C(=O)N/N=C/c2cc(O)c(O)c(Br)c2Br)cc1 [D10.086]", "recorded_metric": "pIC50", "measured_result": 4.24}
{"molecule": "Cc1csc(/C(=N\\OC(=O)c2ccc(Br)o2)C(N)=O)n1 [D11.003]", "recorded_metric": "pIC50", "measured_result": 4.85}
{"molecule": "Cc1cccc(C(=O)Oc2c(Br)cc(Br)cc2/C=N/NC(=O)CNC(=O)c2ccc(Cl)cc2)c1 [D10.021]", "recorded_metric": "pIC50", "measured_result": 4.88}
{"molecule": "COc1ccc(C2(N3CCCC3)Oc3ccccc3C(C#Cc3ccccc3)=C2C)cc1 (centres unmarked) [D4.071]", "recorded_metric": "pIC50", "measured_result": 4.22}
{"molecule": "CCCOC(=O)c1cc(-c2ccc(/C=C3\\C(=O)NC(=O)C(C#N)=C3C)o2)ccc1Cl [D12.034]", "recorded_metric": "pIC50", "measured_result": 4.19}
{"molecule": "CCOC(=O)c1c(C)oc2c1c1c(c3ccccc32)OCN(C2CCS(=O)(=O)C2)C1 (centres unmarked) [D4.045]", "recorded_metric": "pIC50", "measured_result": 4.47}

###

Quick list: IC50 per entry.
target_under_test: dipeptidyl peptidase IV (Homo sapiens, UniProt P27487)
assay_remarks: biochemical
settings: values without "*" = IC-50; read-out: IC50DPIV

{"compound": "COc1ccc(CCN(C)c2ccc(N3C(=O)CCCC3=O)cc2[N+](=O)[O-])cc1OC", "IC50": "52.6 µM"}
{"compound": "Cn1c(=O)n(Cc2ccccc2)c(=O)c2c1nc(N1CCNCC1)n2Cc1ccccc1 [D3.064]", "IC50": "48.3 µM"}
{"compound": "CCN(CC)C(=O)C1CCCN(c2ccc([N+](=O)[O-])cc2/C=N/NC(=O)c2cccc([N+](=O)[O-])c2)C1 (stereo not shown) [D5.036]", "IC50": "54 µM"}
{"compound": "Cn1c(=O)c2c(nc(NCCCCO)n2Cc2ccccc2Cl)n(C)c1=O", "IC50": "16.2 µM"}

###

target_under_test: dipeptidyl peptidase IV (Homo sapiens, UniProt P27487)
assay_remarks: biochemical
settings: values without "*" = IC-50; read-out: IC50DPIV
Note that class boundaries on IC50 are band A = under 20 µM, band B = from 20 µM up to 50 µM, band C = 50 µM and over

{"compound": "O=C(N/N=C/C=C/c1ccccc1)c1cc(C2CC2)n[nH]1 [D10.076]", "assigned_label": "band C"}
{"compound": "COc1cc(C(=O)Oc2c(Br)cc(Br)cc2/C=N/NC(=O)COc2ccc(C)cc2)cc(OC)c1OC [D10.082]", "assigned_label": "band C"}
{"compound": "CCCn1c(N2CCN(CC(=O)c3c(C)n(C)c4ccccc34)CC2)nc2c1c(=O)[nH]c(=O)n2C [D4.019]", "assigned_label": "band A"}
{"compound": "C/C(=N\\NC(=O)/C(=C\\c1ccc(F)cc1)NC(=O)c1ccccc1)c1ccccc1O [D10.055]", "assigned_label": "band B"}
{"compound": "Cc1ccccc1N1C(=O)c2sc3nc4c(c(=O)n3c2C1=O)CCC4 [D3.020]", "assigned_label": "band A"}
{"compound": "CCOc1cc(/C=N\\NC(=O)c2cnccn2)ccc1O [D10.027]", "assigned_label": "band A"}
{"compound": "CCCOC(=O)c1cc(-c2ccc(/C=C3\\C(=O)N(CCCO)C(=O)C(C#N)=C3C)o2)ccc1Cl [D6.092]", "assigned_label": "band C"}
{"compound": "CN(C)CCNc1nc2c(c(=O)n(C)c(=O)n2C)n1Cc1ccccc1Cl [D3.004]", "assigned_label": "band A"}
{"compound": "O=C(N/N=C/c1cc([N+](=O)[O-])cc([N+](=O)[O-])c1O)/C(=C\\c1cccs1)NC(=O)c1ccccc1 [D10.029]", "assigned_label": "band A"}
{"compound": "O=C1CSCC(=O)N1c1ccc(F)cc1 [D4.086]", "assigned_label": "band C"}
{"compound": "CCCn1c(N2CCN(CC(=O)c3c(C)n(C)c4ccccc34)CC2)nc2c1c(=O)[nH]c(=O)n2C [D6.019]", "assigned_label": "band A"}
{"compound": "Cc1cccc(C(=O)N/N=C/c2c(O)ccc3ccccc23)c1 [D10.072]", "assigned_label": "band B"}
{"compound": "O=C1c2ccc(Oc3ccc([N+](=O)[O-])cc3[N+](=O)[O-])cc2C(=O)N1c1ccccc1 [D4.028]", "assigned_label": "band B"}
{"compound": "O=C(N/N=C\\c1cccc(OC(=O)c2ccc([N+](=O)[O-])cc2)c1)/C(=C/c1ccc2c(c1)OCO2)NC(=O)c1ccccc1 [D10.043]", "assigned_label": "band B"}

###

target_under_test: dipeptidyl peptidase IV (Homo sapiens)
assay_remarks: biochemical
settings: values without "*" = IC-50; read-out: IC50DPIV
pIC50: −log10 of the molar value.
Listed here are compounds together with their documented pIC50.

{"compound": "CC(=O)N(C(C)=O)c1nc(-c2ccccc2)cn1/N=C/c1ccccc1 [D10.011]", "pIC50": 5.00}
{"compound": "O=C1CCCC(=O)N1c1ccc(N2CCN(Cc3ccccc3)CC2)c([N+](=O)[O-])c1 [D4.035]", "pIC50": 4.61}
{"compound": "Cc1ccc(C(=O)N/C(=C\\c2ccco2)C(=O)N2CCOCC2)cc1C [D12.025]", "pIC50": 4.33}
{"compound": "CCN(CC)C(=O)C1CCCN(c2ccc([N+](=O)[O-])cc2/C=N/NC(=O)c2cccc([N+](=O)[O-])c2)C1 (stereo not drawn) [D10.075]", "pIC50": 4.27}
{"compound": "Cc1csc(/C(=N\\OC(=O)c2ccco2)C(N)=O)n1 [D11.009]", "pIC50": 4.48}
{"compound": "CCOC(=O)c1cc(-c2ccc(/C=C3/C(=O)NC(=O)C(C#N)=C3C)o2)ccc1Cl [D4.069]", "pIC50": 4.25}
{"compound": "CCOc1cc(/C=N/NC(=O)COc2ccc(Cl)cc2)ccc1OC(=O)c1ccc(Br)cc1 [D10.035]", "pIC50": 4.70}
{"compound": "COC(=O)C1=CN(N(C(C)=O)C(C)=O)C(=O)CC1 [D12.033]", "pIC50": 4.22}
{"compound": "CCCn1c(N2CCN(CC(=O)c3c(C)n(C)c4ccccc34)CC2)nc2c1c(=O)[nH]c(=O)n2C [D3.027]", "pIC50": 4.82}
{"compound": "Cc1ccc(Cn2cccc2/C=N/NC(=S)Nc2ccc(C)c(C)c2)cc1 [D10.077]", "pIC50": 4.26}
{"compound": "Nc1ccc2c(c1)C/C(=C\\c1ccco1)C2=O [D3.070]", "pIC50": 4.56}
{"compound": "CCOc1ccc(/C=N/NC(=O)c2cc(-c3c(OC)ccc4ccccc34)n[nH]2)cc1 [D6.081]", "pIC50": 4.25}
{"compound": "COCC(=O)CC(N)c1ccc(C)cc1 (stereo not drawn) [D13.002]", "pIC50": 4.63}
{"compound": "O=C(Cn1c2ccccc2c(=O)c2ccccc21)NN=Cc1cc(Br)c(O)c(Br)c1 [D10.018]", "pIC50": 4.91}
{"compound": "CCOc1cc(/C=N/NC(=O)c2cc(-c3ccco3)n[nH]2)ccc1O [D10.099]", "pIC50": 4.07}
{"compound": "CN(C)c1ccc(C2C=C(Nc3ccccc3)C(=O)N2c2ccccc2)cc1 (stereo not drawn) [D12.006]", "pIC50": 4.69}
{"compound": "CCCn1c(N2CCN(CC(=O)c3c[nH]c4ccccc34)CC2)nc2c1c(=O)[nH]c(=O)n2C [D12.012]", "pIC50": 4.51}
{"compound": "O=C1C(N2CCOCC2)=C(Cl)/C(=N/S(=O)(=O)c2ccc(Cl)cc2)C(Cl)(Cl)C1(Cl)Cl [D4.075]", "pIC50": 4.18}

# credit: patent US20070037785A1
